EC50 reference
# protocolDescription: NF-kB promoter reporter activators, neuronal cells, dose response, cell-based, SH-SY5Y, luciferase (AID 1241)
# conditionContext: fold induction

{"columns": ["smilesInput", "EC50"],
 "data": [
  ["Cn1cccc1C(=O)OCc1csc(-c2ccccc2)n1", "0.768 µM"],
  ["COc1ccc(NC(=O)c2csc3c2CCCC3)cc1", "16.7 µM"],
  ["COc1ccc(-c2nc(-c3ccc(Br)cc3)no2)c(OC)c1", "2.56 µM"],
  ["Cc1ccc(-c2nnc(SCc3ccccc3F)o2)cc1", "4.63 µM"],
  ["FC(F)(F)c1cc(Cl)c2nc(-c3ccccc3)cn2c1", "5.67 µM"],
  ["c1ccc2sc(NN=C3CCCC3)nc2c1", "5.21 µM"],
  ["Fc1ccccc1Cn1nnc(-c2ccc3c(c2)OCO3)n1", "8.43 µM"],
  ["Cc1cc(C)cc(NC(=O)c2ccc([N+](=O)[O-])o2)c1", "4.24 µM"],
  ["COc1cccc(-c2nc3cc(C)ccc3o2)c1", "1.05 µM"],
  ["CCOc1cc(/C=N/Nc2cccc(C(=O)O)c2)ccc1OC(=O)c1ccccc1", "4 µM"],
  ["O=C(Nc1ccc2c(c1)OCO2)c1noc2c1CCCCC2", "1.13 µM"],
  ["Cc1nc2ccc(-c3nc4ccccc4o3)cc2[nH]1", "3.3 µM"],
  ["CCN(CC)c1ccc(C(=O)Nc2cccc(F)c2)cc1", "1.06 µM"],
  ["CSc1ccccc1-c1nnc(-c2ccccc2)o1", "3.7 µM"],
  ["O=C(Nc1ccc(F)cc1)/C(Cl)=C/c1ccccc1", "23.4 µM"],
  ["COc1cc(/C=N/N(C)c2ccccc2)ccc1O", "2.64 µM"],
  ["Fc1ccc(-c2cnn3c(-c4ccncc4)ccnc23)cc1", "1.24 µM"],
  ["Cc1ccc(NC(=O)c2ccccn2)c(Br)c1", "18.9 µM"],
  ["COc1ccc(/C=N/Nc2cc(OC)ncn2)cc1", "0.341 µM"],
  ["O=C(c1ccccc1)c1cnc(-c2ccc(Cl)cc2)s1", "1.25 µM"],
  ["Cc1ccc(Nc2nc3ccccc3s2)c(C)c1", "0.874 µM"],
  ["O=C(NC1=NCCS1)c1sc2ccccc2c1Cl", "5.76 µM"],
  ["Fc1ccc(-c2cn3cc(C(F)(F)F)cc(Cl)c3n2)cc1", "4.45 µM"],
  ["CC(C)c1ccc(/C=N/NC(=O)c2cccc(Cl)c2)cc1", "28.8 µM"],
  ["O=C(Nc1ccc2c(c1)OCCO2)c1cc2ccccc2o1", "1.12 µM"],
  ["Oc1ccccc1-c1cc(-c2ccc3c(c2)OCCO3)n[nH]1", "0.639 µM"],
  ["COc1ccc(-n2nc3cc(C)c(N)c(Br)c3n2)cc1", "1.44 µM"],
  ["Cc1ccc(N/N=C(\\C#N)C(=N)N2CCCCCC2)cc1", "1.85 µM"],
  ["COc1ccc(C(=O)Nc2cccc(C)c2)cc1", "6.19 µM"],
  ["Cc1nc2c(ccc3nc(NC(=O)c4ccc5c(c4)OCCO5)sc32)s1", "0.784 µM"]
]}

====

# protocolDescription: NF-kB promoter reporter activators, neuronal cells, dose response, cell-based, SH-SY5Y, luciferase (AID 1241)
# conditionContext: fold induction
pEC50: −log10 of the molar value.
Measured pEC50, listed per entry for reference.

{"columns": ["compound", "pEC50"],
 "data": [
  ["CCOC(=O)CSc1nc2cc(OC)ccc2cc1C#N", 6.84],
  ["Cc1cc(C(=O)Nc2cccc(C(=O)O)c2)oc1C", 4.53],
  ["COc1ccc(NC(=O)c2cc3ccccn3n2)cc1", 6.02],
  ["O=C(Nc1ccc(Cl)cc1)N1CCC(c2ccccc2)C1 (centres undefined)", 4.97],
  ["CCN(CC)c1ccc(/C=N/NC(=S)NC)c(O)c1", 5.70],
  ["COc1ccc(-c2nc3ccc([N+](=O)[O-])cc3[nH]2)cc1", 5.78],
  ["O=C(c1cc(-c2cccc(O)c2)on1)N1CCCCC1", 5.26],
  ["Cc1ccc(NC(=O)N2CCC(c3ccccc3)C2)cc1C (centres undefined)", 5.28],
  ["CCCCNc1ncnc2c1cnn2-c1ccccc1", 5.22],
  ["Cc1nc(Nc2ccccc2)sc1-c1ccccc1", 5.84],
  ["CN(C)c1ccc(/C=c2\\sc3n(c2=O)CCCN=3)cc1", 4.93],
  ["CN(C)c1ccc(C(=O)/C=C/c2ccco2)cc1", 5.71],
  ["O=c1oc2ccccc2cc1-c1csc(Nc2ccc(O)cc2)n1", 5.49],
  ["CCOC(=O)CSc1nc(-c2ccncc2)ccc1C#N", 5.17],
  ["C/C(N)=C(/C#N)C(=O)CSc1nnc(-c2ccc3c(c2)OCO3)o1", "> 7.23"],
  ["COCCNC(=O)/C(C#N)=C/c1cc(C)n(-c2ccc(C)cc2)c1C", 5.25],
  ["O=C(Nc1ccc2c(c1)CCC2)c1ccccc1", 5.74],
  ["C/C(=N\\NC(=O)c1ccc(Cl)cc1)c1cccs1", 5.85],
  ["COc1ccc(OCc2cccc(C(=O)O)c2)cc1", 6.02],
  ["O=C(NC1=NCCS1)c1csc2ccccc12", 4.76],
  ["Fc1ccc(-c2cnn3c(-c4cccs4)ccnc23)cc1", 6.27],
  ["Cc1ccc(/C=C(\\C#N)c2nc3ccccc3[nH]2)s1", 6.20],
  ["NC(=O)c1ccccc1N/C=C/C(=O)c1ccccc1", 5.99],
  ["Cc1ccc(OCc2nc(-c3cccs3)no2)c([N+](=O)[O-])c1", 6.11],
  ["O=C1C=C(Nc2ccccc2)C(=O)c2ccccc21", 5.87],
  ["Cc1ccc(-c2cnc3c(Cl)c(C)nn3c2)cc1", 4.94],
  ["COc1ccccc1/C=C/C(=O)Nc1ccc2c(c1)CCC2", 5.25],
  ["O=C(N/N=C/C(Br)=C/c1ccccc1)c1cccs1", 4.74],
  ["COc1ccc(-n2ncc3c(NCC(C)C)ncnc32)cc1", 5.92]
]}

====

# protocolDescription: NF-kB promoter reporter activators, neuronal cells, dose response, cell-based, SH-SY5Y, luciferase (AID 1241)
# conditionContext: fold induction
pEC50: −log10 of the molar value.

{"columns": ["smilesInput", "pEC50"],
 "data": [
  ["Cc1cccnc1NCc1ccc(O)c2ncccc12", 5.12],
  ["CC(C)c1ccc(/C=C/c2ccc(=O)n(C)n2)cc1", 5.06],
  ["O=C1CCOc2cc(OCc3ccccc3)ccc21", 6.08],
  ["c1ccc(Cn2ccc(-c3cnc(-c4ccccc4)s3)n2)cc1", 5.65],
  ["Cc1ccc(OCCSc2ncccn2)c(C)c1", 5.27],
  ["CC(=O)c1ccc(Nc2ccc(-c3ccccc3F)nn2)cc1", 6.08],
  ["Cc1ccc(-c2nc(-c3ccccc3)no2)cc1", 6.03],
  ["CCOc1ccc2nc(NC(=O)Nc3cccs3)sc2c1", 5.77],
  ["c1ccc2c(c1)CCN(c1nc3cc4c(cc3s1)OCO4)C2", 6.28],
  ["O=C(Nc1ccccc1)c1cc2ccccc2o1", 5.91],
  ["COC(=O)c1sc2nc3c(cc2c1N)CCCC3", 5.39],
  ["O=C(/C=C/Nc1ccc(Oc2ccccc2)cc1)c1ccco1", 5.92],
  ["O=C(/C=C/Nc1ccccc1F)c1ccc(Br)cc1", 6.23],
  ["CCOC(=O)CSc1nc2cc(C)ccc2cc1C#N", 5.96],
  ["Nc1cccc(-c2nc3ccccc3s2)c1", 5.85],
  ["CC(=O)Nc1ccc(-c2csc(Nc3cccc(C)n3)n2)cc1", 6.00],
  ["CC(C)CC(=O)Nc1ccc(-c2cn3ccsc3n2)cc1", 5.07],
  ["CCOC(=O)c1cnc(SCc2ccccc2)nc1N", 5.05],
  ["Oc1ccccc1-c1cc(-c2cccc(F)c2)n[nH]1", 5.11],
  ["COCCOCCn1c(/C=C/c2ccccc2)nc2ccccc21", 5.24],
  ["CCOC(=O)c1sc(=NC(=O)c2ccccc2)n(C)c1C", 5.65],
  ["Oc1ccc(CN2CCN(Cc3ccccc3)CC2)c2cccnc12", 5.28],
  ["Cc1ccc(-c2cc(-c3cccc(F)c3)n[nH]2)c(O)c1", 5.36],
  ["COc1ccccc1Nc1nc(-c2cccs2)cs1", 5.43],
  ["Oc1ccc(-c2csc(Nc3ncccn3)n2)c(O)c1", 6.02],
  ["Cc1ccc2nc(-c3ccc(NC(=O)COC(=O)c4cncc(Br)c4)cc3)sc2c1", 6.41],
  ["COC(=O)c1ccc(-c2ccc(Cl)cc2)nc1C", 5.35],
  ["Cc1ccc(C(=O)/C=C/Nc2ccc3c(c2)OCO3)cc1", 6.05],
  ["O=C(Nc1ccc2c(c1)OCCO2)c1ccc2ccccc2n1", 5.84],
  ["Oc1ccccc1-c1cc(-c2ccccc2)no1", 5.75],
  ["O=C(N/N=C/c1cccc(F)c1)c1csc2c1CCCC2", 4.66],
  ["O=C(Nc1ccccc1O)c1ccc(NS(=O)(=O)c2cccc3cccnc23)cc1", 4.66],
  ["CCCc1cc(C(=O)Nc2nccs2)cs1", 5.58],
  ["COc1cc(SC)ccc1C(=O)NCCOc1ccccc1Cl", 4.81],
  ["COc1ccc(-c2coc3cc(OC)cc(O)c3c2=O)cc1", 5.76],
  ["O=C(Nc1ccc(N2CCCC2)c(Cl)c1)c1cccs1", 5.82],
  ["CN1CCN(Cn2cc(/C=C/C(=O)c3ccccc3)c3ccccc32)CC1", 5.44],
  ["CCOC(=O)Cc1ccc2sc(-c3ccccc3)nc2c1", 5.19],
  ["COc1ccc2c(c1)CC/C2=N\\OC(=O)c1ccccc1C", 5.71],
  ["O=C(c1ccccc1)c1cnc(Nc2ccccc2Cl)s1", 5.10],
  ["CSC(=S)N/N=C(\\C)c1ccccc1", 5.93]
]}
